# target_or_test_system: Prostaglandin E2 receptor EP2 subtype (Homo sapiens)
# assay_details: EP2 receptor modulators, dose response, cell-based, human EP2, PGE2 EC50 shift (AID 1421)
# condition_set: EP2-expressing cells, PGE2 EC50 shift by compound; measured here: PGE2 EC50 at 6.7 uM compound
reported_endpoint: PGE2 EC50 with compound (nM)
One number for each entry, in nM.

Here's what some known entries look like.
1) Cc1sc2ncnc(Sc3ccccc3C(=O)O)c2c1C ... 2.7
2) CC1=NN(c2ccc(S(=O)(=O)O)cc2)C(=O)/C1=C\c1ccc(Cl)cc1 ... 1.07
3) C=CCN1C(=O)N(/C=C/C)c2cccc3cccc1c23 ... 2.79
4) CCc1ccccc1NC(=O)/C(=C/c1ccccc1)c1ccccc1 ... 1.14
5) CCCCOc1c(Br)cc(/C=N/O)cc1OCC ... 0.93
6) O=C(COC(=O)c1ccccc1)Nc1ccccc1Sc1ccccc1 ... 0.83
7) CCCc1nc(SC2CCCC2)c2c(=O)n(C)c(=O)n(C)c2n1 ... 0.75
8) CCC1C/C(=C/c2ccco2)C(=O)/C(=C/c2ccco2)C1 (centres undefined) ... 1.02
9) O=C(C(c1ccccc1)c1ccccc1)N1CCCc2ccccc21 ... 0.71
10) Cc1nccc2[nH]c(=O)c(C(=O)NC3CCCCC3C)cc12 (centres undefined) ... 1.44

List PGE2 EC50 with compound for every entry below, keeping the order given.
1. Cc1cc(C)c(C)c(Cn2c(CO)nc3ccccc32)c1C
2. N#Cc1sc2nc(N3CCCCC3)c3c(c2c1N)CCCC3
3. Cc1cccc(C)c1NC(=O)CSc1nnc(Cn2nnc(-c3ccccc3)n2)n1-c1ccccc1
4. CCOC(=O)c1cnc2ccc(OCC)cc2c1N(C)Cc1ccccc1
5. COC(=O)c1c(NC(=O)c2cccs2)sc2c1CCC(C)C2 (centres undefined)
6. O=S1(=O)N=C(N(CCO)/N=C/C=C/c2ccccc2)c2ccccc21
7. CCCOc1ccc(Cl)cc1CNc1ccccc1

OUT:
1. 0.6
2. 1.33
3. 0.65
4. 2.48
5. 0.96
6. 2.08
7. 1.22

List PGE2 EC50 with compound for every entry below, keeping the order given.
1. COc1ccc(-n2c(COc3cccc4ccccc34)nnc2SCC(=O)NCc2ccco2)cc1
2. CCCC(=O)C1=C(O)C(C(=O)OC)C(C)(C)CC1=Nc1cccc2ccccc12 (centres undefined)
3. Cc1nn2c(c1-c1ccccc1)N=C(c1ccco1)CC2c1ccccc1 (centres undefined)
4. C=C[C@@](C)(O)CCC1C(=C)C[C@H](O)C2C(C)(C)CCCC12C (some centres undefined)

OUT:
1. 1.07
2. 1.53
3. 0.8
4. 2.91

List PGE2 EC50 with compound for every entry below, keeping the order given.
1. C=CCSc1nc2sc(C)c(C)c2c(=O)n1CC=C
2. C=CCn1c(SCc2c(C)noc2C)nc2ccccc2c1=O
3. Nc1c(C(=O)Nc2ccccc2F)sc2nc(Cc3ccccc3)cc(C(F)(F)F)c12

OUT:
1. 0.83
2. 1.49
3. 0.62
